Data credit: PubChem BioAssay (NCI)

Test system: T-47D breast
assay-info: NCI tumour cell line growth inhibition, 48 h
attribute-measured: TGI

Here are 6 compounds together with their reported answers.
[
  {
    "compound": "CCOC(=O)CCc1cccc2c1oc1c(CCNC(=O)OCC3c4ccccc4-c4ccccc43)cccc12",
    "result": "81.1 µM"
  },
  {
    "compound": "C[C@]12CC[C@@H]3c4ccc(O)cc4CC[C@H]3[C@@H]1CC[C@@H]2NS(=O)(=O)c1ccc(Cl)cc1",
    "result": "15.3 µM"
  },
  {
    "compound": "CCn1c(O)c(C=Nc2ccccc2)s/c1=N/Nc1ncc(CC(=O)Nc2ccccc2C)s1",
    "result": "> 100 µM"
  },
  {
    "compound": "Nc1cccc2nnccc12",
    "result": "> 100 µM"
  },
  {
    "compound": "c1csc(-c2cc(-c3ccsc3)c(-c3ccsc3)s2)c1",
    "result": "54.2 µM"
  },
  {
    "compound": "O=C(Nc1ncc(Cc2ccccc2)s1)c1sc2ccccc2c1Cl",
    "result": "> 100 µM"
  }
]

Q) Please give the measured TGI for this compound: O=C(/C=C/c1ccc2ccccc2c1)NCc1ccc(C(=O)NCc2ccccc2)cc1
A) > 89.6 µM

Q) Please give the measured TGI for this compound: COC(=O)[C@]12CC[C@H]3CN(C(=O)OCc4ccccc4)[C@H]([C@H]31)[C@H](c1ccccc1)N2
A) > 100 µM

Q) Please give the measured TGI for this compound: CCOC(=O)O/C(=C\c1ccc(OC)cc1)c1c(OC(=O)OCC)n(C(=O)OCC)c2ccccc12
A) > 100 µM

Q) Please give the measured TGI for this compound: COc1cc(C(c2c(O)c3ccccc3oc2=O)c2c(O)c3ccccc3oc2=O)ccc1O
A) 33.9 µM

Q) Please give the measured TGI for this compound: CN(C)CCCNc1ccnc2cccc([N+](=O)[O-])c12
A) 80.8 µM

Q) Please give the measured TGI for this compound: O=C1/C(=C\c2cccc(Oc3ccccc3)c2)SC(c2ccccc2)N1c1ccccc1Cl (centres undefined)
A) > 100 µM

Q) Please give the measured TGI for this compound: NNC1=Nc2ccc(Cl)cc2C(=S)N2CSCC12 (centres undefined)
A) > 100 µM

Q) Please give the measured TGI for this compound: COC(=O)C(Cc1c[nH]c2ccccc12)NP(=O)(O)OCC1OC(n2ccc(N)nc2=O)C(O)C1O (centres undefined)
A) > 100 µM

Q) Please give the measured TGI for this compound: CC1CCCc2sc3nc(NNC(=O)c4cnccn4)n(-c4ccccc4)c(=O)c3c21 (centres undefined)
A) > 100 µM

Q) Please give the measured TGI for this compound: C=C1CC(C)(COc2ccc3c(C)c(C)c(=O)oc3c2C)OC1=O (centres undefined)
A) 3.09 µM

Q) Please give the measured TGI for this compound: Cc1cc2c(O)c(c1)CN(Cc1ccccc1)Cc1cc(C)cc(c1O)CN(Cc1ccccc1)Cc1cc(C)cc(c1O)CN(Cc1ccccc1)C2
A) > 100 µM

Q) Please give the measured TGI for this compound: O=C(c1ccc(Cl)c(Cl)c1)N1CCN(C(=O)c2ccc(Cl)c(Cl)c2)C1=S
A) 73.6 µM

Q) Please give the measured TGI for this compound: CC(C)(C)OC(=O)NCCC1SC2C=CC1C2 (centres undefined)
A) > 100 µM

Q) Please give the measured TGI for this compound: C/C=C(/C)C(=O)O[C@H]1CCN2CC=C(COC(=O)[C@@](O)([C@H](C)OC)C(C)(C)O)[C@H]12
A) > 100 µM

Q) Please give the measured TGI for this compound: COc1ccc(-c2cn[nH]c2-c2cc(OC)c(OC)c(OC)c2)cc1OCc1ccccc1
A) 19.1 µM

Q) Please give the measured TGI for this compound: CCOC(=O)C1=c2[nH]c3cccc4cccc(c43)n2C(=O)CC1
A) 69.8 µM

Q) Please give the measured TGI for this compound: O=C(/C=C/c1ccc(O)c(O)c1)OCCCOC(=O)/C=C/c1ccc(O)c(O)c1
A) > 100 µM

Q) Please give the measured TGI for this compound: Cc1cc2c(c(S(=O)(=O)c3ccc(Cl)cc3[N+](=O)[O-])c1)NCCC2
A) > 100 µM

Q) Please give the measured TGI for this compound: O=C1C=CC(=O)C(CNc2ccc(C(=O)OC34CC5CC(CC(C5)C3)C4)cc2)=C1Br
A) 18.5 µM
